# ASSAY SYSTEM: Calcium/calmodulin-dependent protein kinase type IV (Homo sapiens);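 also: each value is the mean of the measured CAMK4 inhibition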
# CONDITION NOTES: at 1 µM
Listed here are compounds together with their documented inhibition.
VALUE TYPE: inhibition (%)

# COMPOUND, VALUE TYPE, MEASUREMENT UNITS, REPORTED MEASUREMENT
records = [
    ("CS(=O)(=O)CCNCc1nc(-c2ccc3ncnc(Nc4ccc(F)c(Cl)c4)c3c2)cs1", "inhibition", "%", 0.31),
    ("Cn1cc(C=C2C(=O)Nc3cccnc32)c2ccccc21", "inhibition", "%", -0.07),
    ("CC1=C(C(=O)Nc2ccc3[nH]ncc3c2)C(c2ccc3ccccc3c2)CC(=O)N1 (stereo not given)", "inhibition", "%", 0.1),
    ("NC(=O)c1cccc(Nc2nccc(Nc3cccc4[nH]ncc34)n2)c1", "inhibition", "%", 2.27),
    ("Cc1nnc(-c2ccc(C)c(-c3ccc(C(=O)Nc4cccc(C#N)c4)cc3)c2)o1", "inhibition", "%", -0.84),
    ("CCn1c(-c2nonc2N)nc2cncc(C(=O)N3CC[C@H](N)C3)c21", "inhibition", "%", -0.55),
    ("CS(=O)(=O)Nc1ccc(N/C=C2\\C(=O)Nc3ccccc32)cc1", "inhibition", "%", -1.35),
    ("O=C1NC(=O)C(c2cccc(Cl)c2)=C1Nc1ccc(O)c(Cl)c1", "inhibition", "%", 4.94),
    ("Cc1nn(C)c2cc(N(C)c3ccnc(Nc4cccc(S(N)(=O)=O)c4)n3)ccc12", "inhibition", "%", 1.88),
    ("COc1ccc2cc(-c3c(-c4ccncc4)nc(-c4ccc([S+](C)[O-])cc4)n3C)ccc2c1 (stereo not given)", "inhibition", "%", 1.25),
]

* * *

# ASSAY SYSTEM: Mitogen-activated protein kinase 13 (Homo sapiens);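 also: mean inhibition of p38delta, screened as part of the GSK PKIS kinase inhibitor set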
# CONDITION NOTES: at 1 µM
VALUE TYPE: inhibition

# MOLECULE, REPORTED MEASUREMENT
records = [
    ("CCCN1CCC(Oc2cc(Nc3nc(Nc4cccc(F)c4C(N)=O)c4cc[nH]c4n3)c(OC)cc2Cl)CC1", "-0.16%"),
    ("Cn1cc(C=C2C(=O)Nc3cccnc32)c2ccccc21", "2.23%"),
    ("Nc1nc(-c2ccc3c(c2)C(=Cc2cc(Br)c(O)c(Br)c2)C(=O)N3)cs1", "-1.28%"),
    ("Nc1ncnc2occ(-c3ccc(NC(=O)Nc4cccc(C(F)(F)F)c4)cc3)c12", "19.3%"),
    ("COc1ccc2cc(-c3c(-c4ccncc4)nc(-c4ccc([S+](C)[O-])cc4)n3C)ccc2c1 (stereo unspecified)", "3.19%"),
    ("COc1ccc(-c2ccncc2)cc1C(N)=O", "6.16%"),
    ("COc1ccccc1Nc1ncc(-c2ccccc2)o1", "4.74%"),
    ("Cc1ccc(C(=O)NC2CCCCC2)cc1-c1ccc(C(=O)NCC2CC2)cc1", "2.53%"),
    ("COc1cc2ncn(-c3cc(OCc4ccccc4Cl)c(C(N)=O)s3)c2cc1OC", "0.78%"),
    ("Nc1ncnc2occ(-c3ccc(NC(=O)Nc4cc(C(F)(F)F)cc(C(F)(F)F)c4)cc3)c12", "14.5%"),
    ("CS(=O)(=O)CCNCc1ccc(-c2ccc3ncnc(Nc4ccc(OCc5cccc(F)c5)c(C(F)(F)F)c4)c3c2)o1", "5.37%"),
]

* * *

# ASSAY SYSTEM: Tyrosine-protein kinase receptor TYRO3 (Homo sapiens);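 also: reported percentages are averaged inhibition values of TYRO3 kinase activity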
# CONDITION NOTES: at 0.1 µM
Listed here are molecules together with their documented inhibition.

# MOLECULE, inhibition / %
measured = [
    ("CCc1cccc(NC(=O)Nc2ccc(Oc3ccc4nc(NC(=O)OC)[nH]c4c3)cc2)c1", 10.6),
    ("Cc1nn(C)c2cc(N(C)c3ccnc(Nc4cccc(S(N)(=O)=O)c4)n3)ccc12", 6.07),
    ("NS(=O)(=O)c1cccc(-c2ccc3c(NC(=O)C4CC4)n[nH]c3c2)c1", -0.52),
    ("CCn1c(-c2nonc2N)nc2ccncc21", -0.29),
    ("CCn1c(-c2nonc2N)nc2c(C#CC(C)(C)O)nc(CN3CCCC3)cc21", 0.06),
    ("O=C1NC(=O)C(c2ccc(Cl)cc2)=C1Nc1ccc(Cl)c(C(=O)O)c1", -0.81),
    ("CS(=O)(=O)CCNCc1nc(-c2ccc3ncnc(Nc4ccc(F)c(Cl)c4)c3c2)cs1", 0.5),
    ("O=C1Nc2ccc(C(=O)c3ccco3)cc2C1=Cc1cc(Cl)c(O)c(Cl)c1", 1.96),
    ("CC1=C(C(=O)Nc2ccc3[nH]ncc3c2)C(c2ccc(F)cc2)NC(=O)N1 (stereo not given)", 1.55),
    ("Nc1nc(-c2ccccn2)c(-c2ccc3ncccc3n2)s1", 1.89),
]

* * *

Listed here are compounds together with their documented inhibition.
# ASSAY SYSTEM: cAMP-dependent protein kinase catalytic subunit alpha (Homo sapiens);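 also: reported value is the mean percent inhibition of PKA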
# CONDITION NOTES: at 0.1 µM
VALUE TYPE: inhibition (%)

# COMPOUND, ASSAY SYSTEM, REPORTED MEASUREMENT
data = [
    ("COc1ccc(COc2ccc(Cc3cnc(N)nc3N)cc2OC)cc1", "cAMP-dependent protein kinase catalytic subunit alpha (Homo sapiens)", 4.69),
    ("CN(C)c1cc2c(Nc3ccc4nc(Cc5ccccc5)[nH]c4c3)ncnc2cn1", "cAMP-dependent protein kinase catalytic subunit alpha (Homo sapiens)", 3.66),
    ("Nc1nc(-c2ccccn2)c(-c2ccc3ncccc3n2)s1", "cAMP-dependent protein kinase catalytic subunit alpha (Homo sapiens)", 1.32),
    ("CCn1c(-c2nonc2N)nc2c(C#CC(C)(C)O)nc(OC[C@@H](N)c3ccccc3)cc21", "cAMP-dependent protein kinase catalytic subunit alpha (Homo sapiens)", 77.5),
    ("c1cnn2ncc(-c3ccnc(Nc4ccc5c(c4)OCCO5)n3)c2c1", "cAMP-dependent protein kinase catalytic subunit alpha (Homo sapiens)", 1.74),
    ("Cc1nnc(-c2ccc(C)c(-c3ccc(C(=O)Nc4cccc(C#N)c4)cc3)c2)o1", "cAMP-dependent protein kinase catalytic subunit alpha (Homo sapiens)", 2.18),
    ("O=C1NC(=O)C(N2CCc3ccccc32)=C1c1ccc(Cl)cc1", "cAMP-dependent protein kinase catalytic subunit alpha (Homo sapiens)", 1.84),
    ("O=C1Nc2ccc(C(=O)c3ccco3)cc2C1=Cc1cc(Cl)c(O)c(Cl)c1", "cAMP-dependent protein kinase catalytic subunit alpha (Homo sapiens)", 1.97),
    ("COc1ccc(-c2ccncc2)cc1C(N)=O", "cAMP-dependent protein kinase catalytic subunit alpha (Homo sapiens)", 2.54),
    ("CS(=O)(=O)CCNCc1ccc(-c2ccc3ncnc(Nc4ccc(OCc5ccccc5)c(Cl)c4)c3c2)o1", "cAMP-dependent protein kinase catalytic subunit alpha (Homo sapiens)", -0.81),
    ("COc1cc2ncn(-c3cc(O[C@@H](C)c4ccccc4Cl)c(C(N)=O)s3)c2cc1OC", "cAMP-dependent protein kinase catalytic subunit alpha (Homo sapiens)", 4.37),
    ("CN1CCC(C(=O)Nc2n[nH]c3nnc(-c4ccccc4)cc23)CC1", "cAMP-dependent protein kinase catalytic subunit alpha (Homo sapiens)", 2.6),
    ("COc1cc(C=NNc2ncnc3c2cnn3-c2ccccc2)ccc1O", "cAMP-dependent protein kinase catalytic subunit alpha (Homo sapiens)", 1.37),
    ("Cc1nn(C)c2cc(N(C)c3ccnc(Nc4cccc(S(N)(=O)=O)c4)n3)ccc12", "cAMP-dependent protein kinase catalytic subunit alpha (Homo sapiens)", 2.03),
    ("Cc1ccc(NC(=O)c2ccnc(N3CCCC3)c2)cc1-c1ccc(C(=O)NCC2CC2)cc1", "cAMP-dependent protein kinase catalytic subunit alpha (Homo sapiens)", -2.06),
    ("COc1ccc(-c2coc3ncnc(N)c23)cc1", "cAMP-dependent protein kinase catalytic subunit alpha (Homo sapiens)", 1.5),
    ("CC(=O)Nc1cccc(C#Cc2cncnc2Nc2ccc(OCc3cccc(F)c3)c(Cl)c2)n1", "cAMP-dependent protein kinase catalytic subunit alpha (Homo sapiens)", 2.4),
    ("[O-][S+]1CCN(Cc2ccc(-c3ccc4ncnc(Nc5ccc(OCc6ccccc6)c(F)c5)c4c3)o2)CC1", "cAMP-dependent protein kinase catalytic subunit alpha (Homo sapiens)", 0.99),
    ("NCc1ccc(-c2nc(-c3ccc(Cl)c(O)c3)c(-c3ccncc3)[nH]2)cc1", "cAMP-dependent protein kinase catalytic subunit alpha (Homo sapiens)", 1.31),
    ("COC(=O)Nc1nc2cc(Oc3ccc(NC(=O)Nc4cccc(C(=O)O)c4)cc3)ccc2[nH]1", "cAMP-dependent protein kinase catalytic subunit alpha (Homo sapiens)", -3.91),
    ("CS(=O)(=O)CCNCc1nc(-c2ccc3ncnc(Nc4ccc(F)c(Cl)c4)c3c2)cs1", "cAMP-dependent protein kinase catalytic subunit alpha (Homo sapiens)", 1.17),
    ("NS(=O)(=O)c1ccc(N/N=C2\\C(=O)Nc3ccc(C(=O)NCCc4c[nH]cn4)cc32)cc1", "cAMP-dependent protein kinase catalytic subunit alpha (Homo sapiens)", 2.18),
    ("CC1=C(C(=O)Nc2ccc3[nH]ncc3c2)C(c2ccc(F)cc2)NC(=O)N1 (centres undefined)", "cAMP-dependent protein kinase catalytic subunit alpha (Homo sapiens)", 3.81),
    ("CCn1c(-c2nonc2N)nc2cnc(Oc3cccc(NC(=O)c4ccc(OCCN5CCOCC5)cc4)c3)cc21", "cAMP-dependent protein kinase catalytic subunit alpha (Homo sapiens)", 17.5),
    ("CCCN1CCC(Oc2cc(Nc3nc(Nc4cccc(F)c4C(N)=O)c4cc[nH]c4n3)c(OC)cc2Cl)CC1", "cAMP-dependent protein kinase catalytic subunit alpha (Homo sapiens)", 9.14),
    ("Nc1nc(-c2ccc3c(c2)C(=Cc2cc(Br)c(O)c(Br)c2)C(=O)N3)cs1", "cAMP-dependent protein kinase catalytic subunit alpha (Homo sapiens)", -0.95),
    ("Nc1ncnc2occ(-c3ccc(NC(=O)Nc4cccc(C(F)(F)F)c4)cc3)c12", "cAMP-dependent protein kinase catalytic subunit alpha (Homo sapiens)", 2.38),
    ("O=C(Nc1n[nH]c2nc(-c3ccco3)c(Br)cc12)C1CC1", "cAMP-dependent protein kinase catalytic subunit alpha (Homo sapiens)", 1.31),
    ("CS(=O)(=O)CCNCc1ccc(-c2ccc3ncnc(Nc4ccc(OCc5cccc(F)c5)c(C(F)(F)F)c4)c3c2)o1", "cAMP-dependent protein kinase catalytic subunit alpha (Homo sapiens)", 1.79),
    ("Cc1cccc(-c2n[nH]cc2-c2ccc3ncccc3n2)n1", "cAMP-dependent protein kinase catalytic subunit alpha (Homo sapiens)", 1.12),
    ("COc1cc2ncn(-c3cc(OCc4ccccc4Cl)c(C(N)=O)s3)c2cc1OC", "cAMP-dependent protein kinase catalytic subunit alpha (Homo sapiens)", -0.08),
    ("O=C1NC(=O)C(c2ccc(Cl)cc2)=C1Nc1ccc(Cl)c(C(=O)O)c1", "cAMP-dependent protein kinase catalytic subunit alpha (Homo sapiens)", -1.8),
    ("COc1cc(C)c(NC(=O)CN(C)C)cc1Nc1nc(Nc2cccc(F)c2C(N)=O)c2cc[nH]c2n1", "cAMP-dependent protein kinase catalytic subunit alpha (Homo sapiens)", 1.08),
    ("COc1ccc(-c2nn3ncccc3c2-c2ccnc(Nc3ccc(Cl)c(C(F)(F)F)c3)n2)cc1", "cAMP-dependent protein kinase catalytic subunit alpha (Homo sapiens)", 1.59),
    ("COc1ccccc1Nc1ncc(-c2ccccc2)o1", "cAMP-dependent protein kinase catalytic subunit alpha (Homo sapiens)", 1.58),
    ("CCn1c(-c2nonc2N)nc2cncc(C(=O)N3CCNCC3)c21", "cAMP-dependent protein kinase catalytic subunit alpha (Homo sapiens)", 4.17),
    ("Cc1ccc(C(=O)NC2CCCCC2)cc1-c1ccc(C(=O)NCC2CC2)cc1", "cAMP-dependent protein kinase catalytic subunit alpha (Homo sapiens)", 3.21),
    ("CS(=O)(=O)CCN(CC#N)Cc1ccc(-c2ccc3ncnc(Nc4ccc(OCc5cccc(F)c5)c(Cl)c4)c3c2)o1", "cAMP-dependent protein kinase catalytic subunit alpha (Homo sapiens)", -3.08),
    ("Cc1cc(O)cc(C)c1/C=C/c1cncc(-c2nn[nH]n2)c1", "cAMP-dependent protein kinase catalytic subunit alpha (Homo sapiens)", -1.63),
]
